Recorded measurements of scaled log2 fold change, one per entry
B1: library; numbered along this chain (parent)
chain: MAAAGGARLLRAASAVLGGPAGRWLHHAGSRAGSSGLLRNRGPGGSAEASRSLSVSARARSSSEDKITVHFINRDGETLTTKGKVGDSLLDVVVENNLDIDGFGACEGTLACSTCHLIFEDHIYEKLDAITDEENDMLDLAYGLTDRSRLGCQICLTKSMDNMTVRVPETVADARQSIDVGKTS

# Variants of: B1
# assayName: scaled log2 fold change in cell abundance, elesclomol vs control (0 = silent mean, 1 = nonsense mean) (scaled log2 ratio); higher = higher viability under elesclomol (loss of FDX1 cuproptosis function);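 further: variant abundance is its share of total variant reads in each endpoint sample, from next-generation sequencing of the integrated ORF PCR-amplified out of genomic DNA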
# runParameters: with ABC1 FDX1 KO; elesclomol 5 nM; glucose 10 mM; 14 days
No unit in the answer, please; the number alone is enough.

INSERT INTO results (mutationlabel, experimentalresult) VALUES
  ('P43K', 0.0332),
  ('D173R', 0.198),
  ('S54T', 0.484);

T164R has a reported scaled log2 fold change of -0.0678

N97F has a reported scaled log2 fold change of 0.103

A28Q has a reported scaled log2 fold change of 0.264
